Every entry's value here was drawn from ChEMBL document CHEMBL1143645.

- experiment-notes: Maximum concentration in male mouse upon intravenous administration
- Type: ADME, organism-based
- Design: route intravenous
- applied-conditions: in vivo
readout-type: Cmax (ng/mL)
Numbers only here, please. The scale is ng/mL.

Challenge: Please report the recorded Cmax for CN1C(=O)NC(Cc2c[nH]c3c(Cl)cccc23)C1=O (stereo unspecified) .
Response given: 873

* * *

- experiment-notes: Area under curve concentration in female mouse after 8 hours of intravenous administration
- Format: ADME
- Set-up: time < 8 hr, route intravenous
- applied-conditions: in vivo
readout-type: AUC at 8 h

Challenge: Please report the recorded AUC at 8 h for CN1C(=O)NC(Cc2c[nH]c3c(Cl)cccc23)C1=O (stereo unspecified) .
Response given: 165 ng·h/mL
